# System: PCSK9 gene
# Protocol Details: PCSK9 gRNA/SpCas9 editing in primary cynomolgus hepatocytes (Tables 2, 22)
# Type: cell-based, cynomolgus monkey
# Study Conditions: 2500 ng/RNA/mL; SpCas9 mRNA MS002 1:1 by weight
# Method: In set of experiments, PCSK9 gRNAs were co-transfected with an equivalent amount (1:1 ratio by weight) of in vitro transcribed commercially available SpCas9 mRNA MS002 purchased from TriLink Biotechnologies into primary human hepatocytes at 2500, 500, or 100 ng/RNA/mL and processed as described in detailed methods. Extracted genomic DNA was analyzed for gene editing at the target site with next-generation sequencing of PCR amplicons generated around the target sites. […]
m = 2'-O-methyl; r = 2'-OH (RNA)
Let's look at some molecules and their measured Cyno Primary Hepatocyte Editing % 2500.
Numbers only; they are read as %.

Illustrative cases are given below, each with its answer.
GA204: PCSK9 gRNA; protospacer CACTCTGTATGCTGGTGTCT (SEQ ID NO: 198) (nucleic acid, sugars from the 5' end m3 r94 m3, linkages s3 o93 s3 (s phosphorothioate, o phosphodiester), T or U not given here) guide: CACUCUGUAUGCUGGUGUCUGUUUUAGAGCUAGAAAUAGCAAGUUAAAAUAAGGCUAGUCCGUUAUCAACUUGAAAAAGUGGCACCGAGUCGGUGCUUUU    19.37
GA170: PCSK9 gRNA; protospacer CCAGGACCGCCTGGAGCTGA (SEQ ID NO: 164) (nucleic acid, sugars from the 5' end m3 r94 m3, linkages s3 o93 s3 (s phosphorothioate, o phosphodiester), T or U not given here) guide: CCAGGACCGCCUGGAGCUGAGUUUUAGAGCUAGAAAUAGCAAGUUAAAAUAAGGCUAGUCCGUUAUCAACUUGAAAAAGUGGCACCGAGUCGGUGCUUUU    23.17

Turning now to a further record.
**Query** Recorded Cyno Primary Hepatocyte Editing % 2500 for GA205: PCSK9 gRNA; protospacer CCCTGCCCTCGATTTCCCGG (SEQ ID NO: 199) (nucleic acid, sugars from the 5' end m3 r94 m3, linkages s3 o93 s3 (s phosphorothioate, o phosphodiester), T or U not given here) guide: CCCUGCCCUCGAUUUCCCGGGUUUUAGAGCUAGAAAUAGCAAGUUAAAAUAAGGCUAGUCCGUUAUCAACUUGAAAAAGUGGCACCGAGUCGGUGCUUUU , please?
**Result** 36.43
